# experiment: NCI Yeast Anticancer Drug Screen. Data for the bub3 strain (AID 167)
# run.parameters: S. cerevisiae bub3 mutant strain, at 50.0 µM, active compounds read high
# Method: Growth inhibition of yeast strains with defined genetic alterations is measured as a screen for potential anti-cancer activity. Selected strains with alterations in DNA damage repair or cell cycle control were exposed to compounds and growth inhibition was measured relative to vehicle treated controls. The strain used in this assay is bub3
The panel holds about 79,000 compounds, 15% with a hit somewhere; the sample as a whole holds those more often.
Would you mind labelling by growth inhibition? At or over 80% is MET, under is NOT MET.

CCCC(=O)Oc1ccc([N+](=O)[O-])cc1	NOT MET
ClCCOCCOc1c(Cl)cc(Cl)c(Cl)c1Cl	NOT MET
O=C(Nc1c(Cl)cccc1Cl)Oc1c(Br)cc(Br)cc1Br	MET
c1cc[c]([Sn]([S]c2ccccn2)([c]2ccccc2)[c]2ccccc2)cc1	MET
OCCSC(=S)Nc1ccc(Cl)c(Cl)c1	MET
OCC(CCc1c[nH]c2ccccc12)c1c[nH]c2ccccc12 (centres undefined)	MET

## Input In plain terms: is recorded growth inhibition at least 80% for O=c1cc(/C=C/c2ccccc2)cccc1O ?
## Output MET

## Input Now the same for C/C(=N\NC(=O)C[n+]1ccccc1)c1sc(-c2nc(C)c(/C(C)=N/NC(=O)C[n+]3ccccc3)s2)nc1C
## Output MET

## Input Now the same for C[n+]1c(/C=C/c2ccccc2Cl)sc2ccccc21
## Output MET

## Input Now the same for COc1cc(/C=C/c2cc[n+](C)cc2)ccc1O
## Output NOT MET

## Input Now the same for O=C1O/C(=C(/Cl)c2c3ccccc3cc3ccccc23)c2ccccc21
## Output MET

## Input Now the same for Cn1c(=O)c2c(ncn2-c2ccncc2)n(C)c1=O
## Output NOT MET

## Input Now the same for CCOC(CN(C)C(=O)Nc1ccc(Cl)c(Cl)c1)OCC
## Output NOT MET

## Input Now the same for COc1cccc(C2CC(C)(O)Oc3cc4c(cc32)OCO4)c1 (centres undefined)
## Output NOT MET

## Input Now the same for COc1cc2c(oc(=O)c3cc(C)cc(OC)c32)c2c(C3OC(C)C(O)C(C)(O)C3O)ccc(O)c12 (centres undefined)
## Output MET

## Input Now the same for O=S(=O)(N/N=C/c1ccc(Cl)cc1Cl)c1ccccc1
## Output NOT MET

## Input Now the same for S=C(N/N=C/c1ccco1)NC12CC3CC(CC(C3)C1)C2
## Output NOT MET

## Input Now the same for OCCCNc1nc2c(Cl)cc(Cl)cc2c2ccccc12
## Output NOT MET

## Input Now the same for Cc1ccc(S(=O)/C=C/S(=O)(=O)c2ccc(C)cc2)cc1 (centres undefined)
## Output MET

## Input Now the same for O=c1c2ccccc2ncn1Cc1ccccc1[N+](=O)[O-]
## Output NOT MET

## Input Now the same for N#CC(=C1C=CC(=NO)C=C1)c1cccc2ccccc12
## Output MET

## Input Now the same for c1ccc2c(CCc3ccncc3)c[nH]c2c1
## Output NOT MET

## Input Now the same for BrCc1ccc2ccc3ccc(CBr)nc3c2n1
## Output NOT MET

---

# experiment: NCI Yeast Anticancer Drug Screen. Data for the sgs1 mgt1 strain (AID 161)
# run.parameters: S. cerevisiae sgs1 mgt1 strain, at 50.0 µM, active compounds read high
About 79,000 compounds went through this panel and 15% of them were active in at least one assay; those are over-represented in the sample as a whole.
Would you mind labelling by growth inhibition? At or over 80% is Satisfied, under is Not satisfied.

A selection of reference data follows.
c1ccc2c(c1)CCc1[nH]c3c(c1-2)-c1ccccc1CC3	Satisfied
OC(c1ccccc1)(c1ccccc1)C(F)(Cl)Cl	Not satisfied
Nc1cc(Cl)c(I)cc1Cl	Not satisfied
COC(=O)CC1(O)c2cc(OC)c3cccc(OC)c3c2CCC1(C)C(=O)OC (stereo unspecified)	Satisfied

## Input In plain terms: is recorded growth inhibition at least 80% for COc1cc(/C=C/C2=C(C)C(=O)CC(c3cc(OC)c(OC)c(OC)c3)C2C)cc(OC)c1OC (stereo unspecified) ?
## Output Not satisfied

## Input Now the same for O=C(NC(=O)C(F)(F)F)Nc1ccc(Cl)cc1
## Output Not satisfied

## Input Now the same for CCCCCCCCCCN1Cc2ccccc2C1
## Output Satisfied

## Input Now the same for O=C(Nc1cc(Cl)ccc1Oc1cc(Cl)c(Cl)cc1S(=O)(=O)O)Nc1cc(Cl)ccc1Oc1cc(Cl)c(Cl)cc1S(=O)(=O)O
## Output Satisfied

## Input Now the same for O=[N+]([O-])C(/C=C(\Cl)n1nnc2ccccc21)=C(/Cl)n1nnc2ccccc21
## Output Not satisfied

## Input Now the same for Cc1cnc(Sc2c([N+](=O)[O-])ncn2C)nc1
## Output Not satisfied

## Input Now the same for O=C1OC(C2OC(=O)C(=O)C2C(=O)c2ccc(Cl)c(Cl)c2)C(C(=O)c2ccc(Cl)c(Cl)c2)C1=O (stereo unspecified)
## Output Not satisfied
